- assay: BHET released, HPLC; higher = more BHET released; extreme values may be limits of the assay
- measurement.conditions: PET substrate: aFilm; 70 °C; pH 5.5; 24 h
Hi there, I'd appreciate the recorded BHET released for every entry that follows.
Give bare numbers, in mM.

>  <entry.sequence>
SNPYQRGPNPTRSALTADGPFSVRTYTISRLSVSGFGGGVIYYPTGTSLTFGGIAMSPGYTADASSLAWLGRRLASHGFVVLVINTNSRFDGPDSRASQLSAALNYLRTSSPSAVRARLDANRLAVAGHSMGGGGTLRIAEQNPSLKAAVPLTPWHTDKTFNTSVPVLIVGAEADTVAPVSQHAIPFYQNLPSTTPKVYVELCNASHIAPNSPNAAISVYTISWMKLWVDNDTRYRQFLCNVNDPALCDFRTNNRHCQ [LCC-ICCG RIP]

>  <unit.of.measure>
mM

>  <BHET released>
0.00382

$$$$

API: the following record is the query input.
[ask] Fill in BHET released for record ADNPYQRGPDPTNASIEAATGPFAVGTQPIVGASGFGGGQIYYPTDTSQTYGAVVIVPGFISVWAQLAWLGPRLASQGFVVIGIETSTITDLPDPRGDQALAALDWATTRSPVRSRIDRTRLAAAGWSMGGGGLRRAACQRPSLKAIVGMAPWNTEKNWSCVTVPTLFFGGSSDAVASPNDHAKPFYNSITRAEKDYIELCNADHFFPTSANTTMAKYFISWLKRWVDNDTRYTQFLCPGPSTGLFAPVCASMNTCPF [CaPETaseM9]
[reply] 0
